Biological target: T1, PSD-95 PDZ3 (UniProt P78352)
T1 chain: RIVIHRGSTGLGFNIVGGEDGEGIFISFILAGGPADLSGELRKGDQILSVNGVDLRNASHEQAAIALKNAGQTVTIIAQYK
Assay: FP
MEASURE: Kd (µM)
Answer in µM, number only, no unit symbol.

Problem: Output Kd of YNRTNRSRMPNLNDLKETAL [CDKL5-1 941-960]
Solution: 40.7

Cited source for all entries: paper PMC13787487
